B1: glmS ribozyme (parent)
chain: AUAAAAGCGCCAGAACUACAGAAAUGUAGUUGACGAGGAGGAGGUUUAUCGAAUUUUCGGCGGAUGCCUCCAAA

Variants of: B1
Assay: self-cleavage kobs at 2500 uM GlcN6P; higher = faster cleavage; RNA array
Settings: with glucosamine-6-phosphate
Variants at the floor of the assay were thinned out.
metricName: self-cleavage kobs at 2500 uM GlcN6P (s⁻¹)
Supply the numeric figure in s⁻¹, leaving out any unit text.

// query Tell me measured self-cleavage kobs at 2500 uM GlcN6P for A12U C68U please.
// result 0.0112

From here, focus on the item given below.
// query State its self-cleavage kobs at 2500 uM GlcN6P: G13A C67U
// result 0.000122
